Data credit: paper PMC2769143

Biological target: crude mushroom tyrosinase (MT) extract
Assay: DOPA oxidation (dopachrome, 475 nm) assay with crude MT extract, with 0.1% SDS
Conditions: 2 mM DOPA, pH 6.5, 0.1% SDS
READOUT_KIND: IC50 (µM)
State just the number; it will be interpreted in µM.

# example entries with known answers
| COMPOUND | UNIT_NAME | OBSERVED_VALUE |
| --- | --- | --- |
| O=c1cccccc1O [tropolone] | µM | 0.39 |
| O=c1cc(CO)occ1O [kojic acid] | µM | 36 |
| N.N.S.S.[S]=[Mo]=[S] [ATTM, ammonium tetrathiomolybdate] | µM | 3.4 |
| CCCCCCc1ccc(O)cc1O [4-HR, 4-hexylresorcinol] | µM | 5.8 |
| O=c1ccc2cc(O)c(O)cc2o1 [esculetin] | µM | 70 |
| [Cl-].[Na+] [NaCl] | µM | 65000 |
| COc1ccc(C=O)cc1 [anisaldehyde] | µM | 1000 |
| Cn1cc[nH]c1=S [methimazole] | µM | 46 |

Next, consider the following compound.
[in] Which measured IC50 value corresponds to O=C(CCc1ccc(O)cc1)c1c(O)cc(O)cc1O[C@@H]1O[C@H](CO)[C@@H](O)[C@H](O)[C@H]1O [phloridzin] ?
[out] 625

----------
Biological target: mushroom tyrosinase (crude, commercial and purified MT)
Assay: DOPA oxidation assay, statements pooled over crude, commercial and purified MT
Settings: 2 mM DOPA; read-out: IC50, range between crude, commercial and purified MT
pIC50: −log10 of the molar value.
READOUT_KIND: pIC50

[in] Which measured pIC50 value corresponds to COc1ccc(C=O)cc1 [anisaldehyde] ?
[out] 2.74 to 3.00
